# System: Fusobacterium nucleatum subsp. Nucleatum;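 note: lowest concentration where monotonic median growth AUC falls below 0.75 of drug-free control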
# test: IC25 growth inhibition; higher = less potent
The entries below come with measured IC25 growth inhibition values attached.

Worked cases, answers included:
O=C(Nc1ccc([N+](=O)[O-])cc1Cl)c1cc(Cl)ccc1O [Niclosamide]; ≤ 80 µM
CCOC(=O)C1=C(C)NC(C)=C(C(=O)OCC)C1c1ccccc1/C=C/C(=O)OC(C)(C)C; > 40 µM
C[C@H]1O[C@H](O[C@H]2[C@H](O)[C@@H](O)[C@@H](O[C@H]3[C@H](O)[C@@H](O)C(O)O[C@@H]3CO)O[C@@H]2CO)[C@H](O)[C@@H](O)[C@@H]1N[C@H]1C=C(CO)[C@@H](O)[C@H](O)[C@H]1O (stereo partly drawn); > 160 µM

Q: I would be grateful if you could share the reported IC25 growth inhibition for `Cc1c(N(C)CS(=O)(=O)O)c(=O)n(-c2ccccc2)n1C` .
Ans: > 160 µM

Q: I would be grateful if you could share the reported IC25 growth inhibition for `Clc1ccccc1C(c1ccccc1)(c1ccccc1)n1ccnc1` .
Ans: > 40 µM

Q: I would be grateful if you could share the reported IC25 growth inhibition for `Cc1ncc([N+](=O)[O-])n1CCO` .
Ans: < 1.25 µM

Q: I would be grateful if you could share the reported IC25 growth inhibition for CC(CN1c2ccccc2Sc2ccccc21)N(C)C (stereo not drawn) .
Ans: > 160 µM

Q: I would be grateful if you could share the reported IC25 growth inhibition for CN(C)C(=O)C(CCN1CCC(O)(c2ccc(Cl)cc2)CC1)(c1ccccc1)c1ccccc1 [Loperamide] .
Ans: > 80 µM

Reference source: the supplement of paper PMC12350171
